Reported log10 IC50 values are given for each entry in this list.
# tgt: PDGF-receptor beta enzyme comprising the tyrosine kinase domain (Homo sapiens, UniProt P09619)
# Construct: from amino acid 545 to 1106 of GenBank Access NO: AAA36427
# Sequence (P09619 545-1106): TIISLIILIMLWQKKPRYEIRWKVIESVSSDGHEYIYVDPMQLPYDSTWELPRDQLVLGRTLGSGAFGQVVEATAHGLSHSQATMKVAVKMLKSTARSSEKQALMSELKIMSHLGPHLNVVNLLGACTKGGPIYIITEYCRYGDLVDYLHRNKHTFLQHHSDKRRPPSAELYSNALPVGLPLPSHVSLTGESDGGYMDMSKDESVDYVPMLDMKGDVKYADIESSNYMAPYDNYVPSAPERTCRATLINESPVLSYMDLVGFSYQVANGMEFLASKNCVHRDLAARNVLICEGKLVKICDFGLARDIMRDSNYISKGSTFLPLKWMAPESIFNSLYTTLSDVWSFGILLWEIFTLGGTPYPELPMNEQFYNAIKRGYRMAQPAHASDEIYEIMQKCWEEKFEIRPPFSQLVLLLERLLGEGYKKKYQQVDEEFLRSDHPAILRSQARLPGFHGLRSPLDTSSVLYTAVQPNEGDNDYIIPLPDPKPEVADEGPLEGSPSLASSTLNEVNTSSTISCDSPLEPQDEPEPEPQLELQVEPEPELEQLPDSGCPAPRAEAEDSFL
# measurement-description: Inhibition of PDGF-receptor kinase activity (cell-free, PLC1 peptide, 33P Flashplate)
# Type: biochemical
# particulars: PDGF-R kinase activity; read-out: IC50
Remember, log10 of IC50, in nM.

COc1cc2c(cc1OCc1ccccc1)-c1n[nH]c(Nc3cccc(F)c3)c1C2; 1.96

Entry CC(C)Oc1cc2c(cc1OC(C)C)C(C)c1c-2n[nH]c1Nc1ccc(F)cc1 (centres unmarked) : reported log10 IC50 = ? 3.29

Entry COc1ccc(Nc2[nH]nc3c2Cc2ccc(OC)cc2-3)cc1 : reported log10 IC50 = ? 2.09

Entry CCOc1cc2c(cc1OCC)-c1n[nH]c(NCc3ccccc3F)c1C2 : reported log10 IC50 = ? 1.84

Entry COc1cc2c(cc1OCCCN1CCOCC1)Cc1c-2n[nH]c1Nc1cccc(F)c1 : reported log10 IC50 = ? 1.00

Entry COCCCOc1ccc2c(c1)Cc1c-2n[nH]c1Nc1ccc(F)cc1 : reported log10 IC50 = ? 3.12

Entry COc1cc2c(cc1OC)-c1nn(C(C)=O)c(Nc3cccc(F)c3)c1C2 : reported log10 IC50 = ? 1.88

Entry CCOC(=O)n1nc2c(c1Nc1cccc(F)c1)Cc1cc(OC)c(OC)cc1-2 : reported log10 IC50 = ? 3.20

* * *

Reported inhibition at 10 µM values are given for each entry in this list.
# tgt: PDGF-receptor beta enzyme comprising the tyrosine kinase domain (Homo sapiens, UniProt P09619)
# Construct: from amino acid 545 to 1106 of GenBank Access NO: AAA36427
# measurement-description: Inhibition of PDGF-receptor kinase activity (cell-free, PLC1 peptide, 33P Flashplate)
# Assay type: biochemical
# particulars: PDGF-R kinase activity; compound at 10 uM; read-out: Percent Inhibition @ 10 uM
# Experimental: PDGF-R kinase activity was assayed by its ability to phosphorylate one of its target proteins, PLCγ, in a cell-free system, in particular, a PLC1 peptide comprising the tyrosine residue where the phosphorylation occurs was used for the assay. […] In order to test the potency of inhibition of present compounds, an IC50 for an individual compound was measured using the above procedure. […]
Numbers only; they are read as %.

Recorded results for 3 compounds are shown here.
COc1cc2c(cc1OC)-c1n[nH]c(Nc3cc(C(C)(C)C)cc(C(C)(C)C)c3)c1C2; 19.5
Oc1cc2c(cc1O)-c1n[nH]c(Nc3cccc(F)c3)c1C2; 80.5
COc1cc2c(cc1OC)-c1n[nH]c(Nc3cc(Cl)ccc3C)c1C2; 51

Proceed to the following item.
Entry COc1cc2c(cc1OCCCN1CCOCC1)Cc1c-2n[nH]c1Nc1cccc(Cl)c1 : reported inhibition at 10 µM = ? 79

* * *

# tgt: PDGF-receptor beta enzyme comprising the tyrosine kinase domain (Homo sapiens, UniProt P09619)
# Construct: from amino acid 545 to 1106 of GenBank Access NO: AAA36427
# measurement-description: Inhibition of PDGF-receptor kinase activity (cell-free, PLC1 peptide, 33P Flashplate)
# Assay type: biochemical
# particulars: PDGF-R kinase activity; compound at 10 uM; read-out: Percent Inhibition @ 10 uM
recorded-metric: inhibition at 10 µM
For clarity, give the value followed by its unit.

N#Cc1ccc2c(c1)CCc1c-2n[nH]c1Nc1ccccc1 [Compound 350]; 91%

Entry COc1cc2c(cc1OC)-c1nn(C(=O)Oc3ccc(F)cc3)c(Nc3cccc(F)c3)c1C2 [Compound 503] : reported inhibition at 10 µM = ? 103%

Entry COCCCOc1ccc2c(c1)Cc1c-2n[nH]c1Nc1cccc(OC)c1 [Compound 139] : reported inhibition at 10 µM = ? 80%

Entry Clc1ccc2c(c1)Cc1c-2n[nH]c1Nc1cccnc1 [Compound 188] : reported inhibition at 10 µM = ? 74%

Entry COc1cc2c(cc1OCC(O)CN1CCCC1)Cc1c-2n[nH]c1Nc1cccc(F)c1 (stereo not shown) [Compound 269] : reported inhibition at 10 µM = ? 94%

Entry COc1ccc(OC)c(Nc2[nH]nc3c2Cc2ccccc2-3)c1 [Compound 341] : reported inhibition at 10 µM = ? 92.5%

Entry COc1cccc(Nc2[nH]nc3c2Cc2cc(F)ccc2-3)c1 [Compound 234] : reported inhibition at 10 µM = ? 101%

* * *

# tgt: PDGF-receptor beta enzyme comprising the tyrosine kinase domain (Homo sapiens)
# Construct: from amino acid 545 to 1106 of GenBank Access NO: AAA36427
# measurement-description: Inhibition of PDGF-receptor kinase activity (cell-free, PLC1 peptide, 33P Flashplate)
# Assay type: biochemical
# particulars: PDGF-R kinase activity; read-out: IC50
recorded-metric: pIC50
Note on units: pIC50 is unitless, being -log10 of a concentration expressed in mol/L.

Recorded results for 4 compounds are shown here.
Brc1ccc2c(c1)Cc1c-2n[nH]c1Nc1ccccc1 [Compound 158]; 6.73
COCCOC(=O)n1nc(Nc2cccc(F)c2)c2c1-c1cc(OC)c(OC)cc1C2 [Compound 438]; 6.00
COc1cc2c(cc1OC)-c1n[nH]c(Nc3cc(C)cc(C)c3)c1C2 [Compound 206]; 6.19
Fc1cccc(Nc2[nH]nc3c2Cc2cc(Cl)ccc2-3)c1 [Compound 191]; 7.16

Entry COc1cc2c(cc1OC)-c1n[nH]c(NCc3cc(F)ccc3F)c1C2 [Compound 323] : reported pIC50 = ? 5.06

* * *

# tgt: PDGF-receptor beta enzyme comprising the tyrosine kinase domain (Homo sapiens)
# Construct: from amino acid 545 to 1106 of GenBank Access NO: AAA36427
# measurement-description: Inhibition of PDGF-receptor kinase activity (cell-free, PLC1 peptide, 33P Flashplate)
# Type: biochemical
# particulars: PDGF-R kinase activity; compound at 10 uM; read-out: Percent Inhibition @ 10 uM
Reported inhibition at 10 µM values are given for each entry in this list.
Numbers only; they are read as %.

Recorded results for 2 compounds are shown here.
CN1CCN(c2ccc3c(c2)Cc2c-3n[nH]c2Nc2ccccc2)CC1 [Compound 64]; 118
Cc1ccc2c(c1)-c1n[nH]c(Nc3cc(C(C)(C)C)cc(C(C)(C)C)c3)c1C2 [Compound 312]; 56.5

Quick check: inhibition at 10 µM on PDGF-receptor beta enzyme comprising the tyrosine kinase domain (Homo sapiens), item Clc1cccc(Cl)c1CNc1[nH]nc2c1Cc1c(OCCCN3CCOCC3)cccc1-2 [Compound 415] ? 98

Quick check: inhibition at 10 µM on PDGF-receptor beta enzyme comprising the tyrosine kinase domain (Homo sapiens), item COc1cc2c(cc1OCCCN1CCOCC1)Cc1c-2n[nH]c1Nc1cccnc1 [Compound 129] ? 53.5

* * *

# tgt: PDGF-receptor beta enzyme comprising the tyrosine kinase domain (Homo sapiens)
# Construct: from amino acid 545 to 1106 of GenBank Access NO: AAA36427
# measurement-description: Inhibition of PDGF-receptor kinase activity (cell-free, PLC1 peptide, 33P Flashplate)
# Type: biochemical
# particulars: PDGF-R kinase activity; read-out: IC50
recorded-metric: log10(IC50) (log10 of the value in nM)
Remember, log10 of IC50, in nM.

COc1cc2c(cc1OCC(O)CN1CCCC1)Cc1c-2n[nH]c1Nc1cccc(F)c1 (centres unmarked); -0.23
COc1cccc(Nc2[nH]nc3c2Cc2cc4c(cc2-3)OCO4)c1; 1.73
COc1cc2c(cc1OC)-c1n[nH]c(NCc3cccc(F)c3)c1C2; 4.03
CCOc1cc2c(cc1OCC)C(C)c1c-2n[nH]c1Nc1ccc(F)c(Cl)c1 (centres unmarked); 2.74
COc1cc2c(cc1F)Cc1c-2n[nH]c1Nc1cccc(Br)c1; 0.94

Entry COc1cc2c(cc1OC)-c1n[nH]c(NCc3cc(-c4ccccc4)on3)c1C2 : reported log10(IC50) = ? 2.18

Entry COc1cc2c(cc1OC)-c1n[nH]c(NCc3ccccc3C(F)(F)F)c1C2 : reported log10(IC50) = ? 1.88

Entry CCOC(=O)CC(=O)n1nc(Nc2cccc(F)c2)c2c1-c1cc(OC)c(OC)cc1C2 : reported log10(IC50) = ? 1.56

* * *

# tgt: PDGF-receptor beta enzyme comprising the tyrosine kinase domain (Homo sapiens, UniProt P09619)
# Construct: from amino acid 545 to 1106 of GenBank Access NO: AAA36427
# measurement-description: Inhibition of PDGF-receptor kinase activity (cell-free, PLC1 peptide, 33P Flashplate)
# Assay type: biochemical
# particulars: PDGF-R kinase activity; compound at 10 uM; read-out: Percent Inhibition @ 10 uM
Reported inhibition at 10 µM values are given for each entry in this list.
Numbers only; they are read as %.

Entry CN(C)CCCOc1ccc2c(c1)Cc1c-2n[nH]c1Nc1cccc(C(F)(F)F)c1 [Compound 165] : reported inhibition at 10 µM = ? 92.5

Entry COCCCOc1cc2c(cc1OCCCOC)-c1n[nH]c(Nc3ccc(F)c(Cl)c3)c1C2 [Compound 287] : reported inhibition at 10 µM = ? 92.5

Entry OCCCOc1cccc2c1Cc1c-2n[nH]c1NCc1c(F)cccc1F [Compound 443] : reported inhibition at 10 µM = ? 89.5

Entry COc1cccc2c1Cc1c-2n[nH]c1NCc1c(F)cccc1F [Compound 423] : reported inhibition at 10 µM = ? 90
